Attribute: Dmax
experimental.target: IRAK-4 (Homo sapiens)
Sequence (Q9NWZ3 whole entry): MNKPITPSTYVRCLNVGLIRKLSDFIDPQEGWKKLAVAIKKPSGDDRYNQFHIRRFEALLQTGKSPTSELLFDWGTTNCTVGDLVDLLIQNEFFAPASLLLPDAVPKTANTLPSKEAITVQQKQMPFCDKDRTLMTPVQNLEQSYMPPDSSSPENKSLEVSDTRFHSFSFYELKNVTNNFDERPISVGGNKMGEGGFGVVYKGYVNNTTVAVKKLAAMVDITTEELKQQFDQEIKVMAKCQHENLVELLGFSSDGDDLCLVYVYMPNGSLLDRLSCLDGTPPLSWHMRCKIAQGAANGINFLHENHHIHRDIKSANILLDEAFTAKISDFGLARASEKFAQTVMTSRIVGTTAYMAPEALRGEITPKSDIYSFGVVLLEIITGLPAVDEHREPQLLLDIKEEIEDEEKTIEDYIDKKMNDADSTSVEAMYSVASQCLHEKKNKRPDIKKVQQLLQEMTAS
test.summary: IRAK-4 ELISA, OCI-Ly10 degradation
Assay type: cell-based
Set-up: endogenous in cells
condition.context: OCI-Ly10, OCI-Ly10 cells, treated overnight

Guide cases for Dmax, answers given:
- compound: "O=C1CCC(N2Cc3cc(C#CCN4CCC(n5cc6cc(NC(=O)c7cnn8cccnc78)c(OCC7CC7)cc6n5)CC4)ccc3C2=O)C(=O)N1 (stereo not drawn)"
  val: "< 70%"
- compound: "O=C1CCC(N2C(=O)c3ccc(C#CCN4CCC(n5cc6cc(NC(=O)c7cnn8cccnc78)c(OCC7CC7)cc6n5)CC4)cc3C2=O)C(=O)N1 (stereo not drawn)"
  val: "80 to 90%"

Moving on to another compound below.
Recall the reported Dmax of COc1cc(N2CCC(CN3CCC(N4Cc5cc(NC(=O)c6cnn7cccnc67)c(OC(C)C)cc5C4=O)CC3)CC2)cc2c1C(=O)N(C1CCC(=O)NC1=O)C2=O (stereo not drawn) on IRAK-4 (Homo sapiens) and write it down. ≥ 90%
